# study_target: Muscarinic acetylcholine receptor M4 (Homo sapiens) (UniProt P08173)
# Sequence (P08173 whole entry, looked up): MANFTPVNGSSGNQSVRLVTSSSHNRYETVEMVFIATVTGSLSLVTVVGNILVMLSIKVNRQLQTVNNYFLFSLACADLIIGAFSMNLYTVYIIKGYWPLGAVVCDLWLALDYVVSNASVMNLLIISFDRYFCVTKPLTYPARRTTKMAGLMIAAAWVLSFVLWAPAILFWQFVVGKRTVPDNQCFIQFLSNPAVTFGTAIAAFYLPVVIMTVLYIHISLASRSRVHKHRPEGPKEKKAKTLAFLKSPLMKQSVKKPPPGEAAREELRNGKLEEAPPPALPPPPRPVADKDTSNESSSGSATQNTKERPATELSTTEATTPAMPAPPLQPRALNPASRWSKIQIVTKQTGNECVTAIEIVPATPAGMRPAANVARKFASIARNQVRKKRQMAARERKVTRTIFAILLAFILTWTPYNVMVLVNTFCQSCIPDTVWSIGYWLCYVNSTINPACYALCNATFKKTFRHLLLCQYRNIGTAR
# assay: human M4 muscarinic receptor antagonists, primary screen, CHO cells, Fluo-8 calcium fluorescence (AID 624125);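 also: 0% = acetylcholine EC80 with DMSO and 100% = DMSO without agonist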
# run_parameters: CHO-hM4 cells, ACh EC80, Fluo-8 calcium fluorescence; at 3 µM; active compounds read high
The campaign covered roughly 360,000 compounds. About 2,600 (0.72%) were called active. This is one part of a sample in which actives are shown more often than they occur.
property_name: inhibition

// worked examples, inhibition included
{"columns": ["molecule", "inhibition"],
 "data": [
  ["O=C(c1ccccn1)c1ncc(C(F)(F)F)cc1Cl", "9.21% (inactive)"],
  ["CN(C)c1ccc(N/C=C/C(=O)C(F)(F)F)cc1", "-4.11% (inactive)"],
  ["O=C(Nc1ccc(Cl)c(C(F)(F)F)c1)C1Cc2c(-c3ccccc3Oc3ccccc3)ccnc2O1 (stereo not drawn)", "6.27% (inactive)"],
  ["CCOc1cc(-c2noc(CCCC(=O)NC3CCCCC3)n2)ccc1OC", "-15.3% (inactive)"]
]}

Ask | Please report the recorded inhibition for "CCCNC(=O)C[C@@H]1CC[C@@H]2[C@H](COC[C@H](O)CN2C(=O)c2cc(Cl)cc(Cl)c2)O1" .
Reply | 2.23% (inactive)

Ask | Another: "C=CCn1cc(Cl)cc(C(=O)Nc2ccccc2)c1=O"
Reply | 1.16% (inactive)

Ask | Another: "CC1(C)CC(N2CCN(C(c3ccccc3)c3ccccc3)CC2)=CC(=[N+]2CCCCC2)C1"
Reply | 56.8% (active)

Ask | Please do the same for "Clc1cc(NC2CCCCC2)ncn1" as well.
Reply | 98.6% (active)

====

# study_target: Muscarinic acetylcholine receptor M4 (Homo sapiens) (UniProt P08173)
# assay: human M4 muscarinic receptor antagonists, primary screen, CHO cells, Fluo-8 calcium fluorescence (AID 624125);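 also: 0% = acetylcholine EC80 with DMSO and 100% = DMSO without agonist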
# run_parameters: CHO-hM4 cells, ACh EC80, Fluo-8 calcium fluorescence; at 3 µM; active compounds read high
Out of some 360,000 compounds screened, about 2,600 (0.72%) were called active. The sample as a whole holds a higher share of actives than the screen did.
Reported inhibition values are given for each entry in this list.
The figure you give is taken to be in %; do not add the unit.

Reference set, count: 5
{"columns": ["compound", "inhibition (%)"],
 "data": [
  ["CCC(C)NCCOCCOc1ccc(Br)cc1C (stereo unspecified)", 6.84],
  ["CCc1cc(C(=O)OC)c(NC(=O)CC2Sc3ccc(C(F)(F)F)cc3NC2=O)s1 (stereo unspecified)", 0.19],
  ["CC(C)C(NS(=O)(=O)c1cccs1)C(=O)Nc1nc(C(C)(C)C)cs1 (stereo unspecified)", -1.31],
  ["O=c1[nH]c2ccccc2n1C1CCN(CCOc2ccccc2)CC1", -13.4],
  ["Cn1c(-c2ccc(C(=O)c3ccccc3)s2)nc2ccccc21", 1.58]
]}

Ask | Reported inhibition, compound "CCC(=O)Nc1cc(C(F)(F)F)ccc1N1CCCC1" : ____
Reply | 3.82

Ask | Could you do the same for "OC(c1ccccc1)(c1ccccc1)C1CCN(CCCOc2ccccc2)CC1" , please?
Reply | 91.6

Ask | Also need "Cc1nc2sc(C(=O)c3ccccc3)c(N)c2c2c1CCCC2" , thanks.
Reply | 29.8

Ask | // repeat for "O=C(CN1C(=O)/C(=C\c2ccc(C(F)(F)F)cc2)Sc2ccccc21)NCc1ccco1" and report
Reply | 14.8

Ask | Consider next the compound "CCCCN(CC(=O)Nc1cccc(S(=O)(=O)N2CCCC2)c1)Cc1nc2ccccc2c(=O)[nH]1" in the same way.
Reply | 15.9

Ask | Next compound: CN(C(=O)CSc1nnc(-c2ccc3c(c2)OCO3)o1)C1CCS(=O)(=O)C1 (stereo unspecified)
Reply | 0.5

====

inhibition values by entry
# study_target: Muscarinic acetylcholine receptor M4 (Homo sapiens)
# assay: human M4 muscarinic receptor antagonists, primary screen, CHO cells, Fluo-8 calcium fluorescence (AID 624125);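 also: 0% = acetylcholine EC80 with DMSO and 100% = DMSO without agonist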
# run_parameters: CHO-hM4 cells, ACh EC80, Fluo-8 calcium fluorescence; at 3 µM; active compounds read high
Screen size: about 360,000 compounds; about 2,600 (0.72%) were called active. Shown is part of a subset that was picked to be rich in actives.
Please respond with the number in % and leave the unit unwritten.

Solved entries (count: 2):
{"columns": ["compound", "property_name", "measurement_units", "reported"],
 "data": [
  ["CCOC(=O)C1CCN(C(=O)Cn2nc(C)c3c(C)n(-c4ccccc4)nc3c2=O)CC1", "inhibition", "%", 9.38],
  ["COc1ccc(S(=O)(=O)/N=C2\\C=C(NS(=O)(=O)c3ccccc3)C(=O)c3ccccc32)cc1", "inhibition", "%", 27.9]
]}

Ask | Quick one: inhibition of "C=CCn1c(N)cc(=O)nc1SCC(=O)Nc1cccc2ccccc12" ?
Reply | 0.21

Ask | Can you handle "COc1ccc(NS(=O)(=O)c2ccc(Oc3c(C#N)cccc3C#N)cc2)cc1" next?
Reply | 15

====

# study_target: Muscarinic acetylcholine receptor M4 (Homo sapiens)
# assay: human M4 muscarinic receptor antagonists, primary screen, CHO cells, Fluo-8 calcium fluorescence (AID 624125);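 also: 0% = acetylcholine EC80 with DMSO and 100% = DMSO without agonist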
# run_parameters: CHO-hM4 cells, ACh EC80, Fluo-8 calcium fluorescence; at 3 µM; active compounds read high
Hit rate of the full screen: of about 360,000 compounds, about 2,600 (0.72%) were called active. Only a selection was taken, and actives are over-represented in it overall.
property_name: inhibition (%)
Quick note: give the figure in %, leave out the unit.

Answered examples (8):
{"columns": ["compound", "study_target", "property_name", "measurement_units", "reported"],
 "data": [
  ["CCOC(=O)N(Cc1ccccc1)C1CC1", "Muscarinic acetylcholine receptor M4 (Homo sapiens)", "inhibition", "%", 2.24],
  ["CCc1nc2c(OCc3ccc(C(F)(F)F)cc3)cccn2c1N(C)C(=O)CC(C)C", "Muscarinic acetylcholine receptor M4 (Homo sapiens)", "inhibition", "%", 3.96],
  ["COc1cccc(/C=C/C(=O)OCC(=O)N2CCCc3ccccc32)c1", "Muscarinic acetylcholine receptor M4 (Homo sapiens)", "inhibition", "%", -7.08],
  ["O=[N+]([O-])c1c(NCCO)cc(Sc2nc3ccccc3s2)c2nonc12", "Muscarinic acetylcholine receptor M4 (Homo sapiens)", "inhibition", "%", 74.6],
  ["CCCCCCn1c(=O)n2n(c1=O)C[C@]1(OC(=O)NCc3ccc(OC)c(OC)c3)CN(S(=O)(=O)c3ccc(C)cc3)C[C@]1(O)C2", "Muscarinic acetylcholine receptor M4 (Homo sapiens)", "inhibition", "%", -8.79],
  ["CC(C)CCN1C(=O)c2ccc(C(=O)Nc3cccc(S(N)(=O)=O)c3)cc2C1=O", "Muscarinic acetylcholine receptor M4 (Homo sapiens)", "inhibition", "%", 4.89],
  ["CCOC(=O)C(CC)Sc1ncnc2c1nnn2-c1ccc(F)cc1 (centres undefined)", "Muscarinic acetylcholine receptor M4 (Homo sapiens)", "inhibition", "%", -1.34],
  ["Cc1cc2cc(CNC(=O)c3ccc(S(=O)(=O)N4CCOCC4)cc3)ccc2[nH]1", "Muscarinic acetylcholine receptor M4 (Homo sapiens)", "inhibition", "%", 28.9]
]}

Field: next compound
Ask | Which inhibition is listed for "CS(=O)(=O)c1ccc(C(=O)NNC(=O)c2cccs2)cc1" ?
Reply | 0.8

====

# study_target: Muscarinic acetylcholine receptor M4 (Homo sapiens) (UniProt P08173)
# assay: human M4 muscarinic receptor antagonists, primary screen, CHO cells, Fluo-8 calcium fluorescence (AID 624125);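 also: 0% = acetylcholine EC80 with DMSO and 100% = DMSO without agonist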
# run_parameters: CHO-hM4 cells, ACh EC80, Fluo-8 calcium fluorescence; at 3 µM; active compounds read high
In all, about 360,000 compounds went through this assay and about 2,600 (0.72%) were called active. The sample holds actives, similar compounds and a random draw of the others, so the mix is not that of the screen.
Attribute: inhibition
Field format: number, assumed %, no unit text.

Sample answers from the record:
{"columns": ["molecule", "reported"],
 "data": [
  ["Cc1ccc(OCCNC(=O)CCNS(=O)(=O)c2ccc(Br)cc2)cc1", -11.5],
  ["CSc1ccc(S(=O)(=O)N2CCC(C(=O)NCc3ccncc3)CC2)cc1", -10.4],
  ["CCOC(=O)[C@]12CCCC=C1N(CCC1=CCCCC1)C(=O)[C@H](CC(=O)NCCCOC)C2", -3.81]
]}

Ask | Query: inhibition; subject: "CCOc1cc(CNCc2ccccn2)ccc1OCC(=O)NC(C)(C)C"
Reply | 1

Ask | Again, but for CC(C)NC(=O)C1(C)CCCCN1Cc1cccc(C(F)(F)F)c1 (stereo not given)
Reply | -7.19

Ask | Another molecule: "CC(C)Cc1cc(C(=O)Nc2cc(Br)ccc2O)no1"
Reply | -14.2

Ask | // repeat for "CCc1ccccc1NC(=O)CN(C)C(=O)COc1ccc(C)nc1[N+](=O)[O-]" and report
Reply | -2.74

Ask | Would you mind doing "OC[C@@H]1CN(Cc2ccc(-c3ccccc3)cc2)C[C@H](n2cnc3c(NC4CCCC4)ncnc32)O1" as well?
Reply | 19.1
